Origin of measurements: the Human Domainome abundance scans (Beltran et al. 2025)

B1: Pituitary-specific positive transcription factor 1, residues 130 to 198; numbered along this chain, P28069 (parent)
chain: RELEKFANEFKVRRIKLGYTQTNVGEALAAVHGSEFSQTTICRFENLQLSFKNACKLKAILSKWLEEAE

variants of: B1; experiment: abundance fitness (aPCA) (normalised: wild type 0, dead -1); higher = more abundant; growth selection in yeast, the domain comes from the species named; conditions: Homo sapiens
Field: class. Source value: abundance fitness. Ranges: group 1 = under -0.6, group 2 = from -0.6 up to -0.3, group 3 = -0.3 and over

Note: place this variant into its band. Item: `I60E` group 2

Note: place this variant into its band. Item: `G25D` group 1

Note: place this variant into its band. Item: `F36I` group 3

Note: place this variant into its band. Item: `Q48V` group 2

Note: place this variant into its band. Item: `R43C` group 2

Note: place this variant into its band. Item: `E2A` group 2

Note: place this variant into its band. Item: `F6W` group 2

Note: place this variant into its band. Item: `V31T` group 3

Note: place this variant into its band. Item: `E67S` group 3

Note: place this variant into its band. Item: `R14D` group 1

Note: place this variant into its band. Item: `S34Q` group 3

Note: place this variant into its band. Item: `E9T` group 2

Note: place this variant into its band. Item: `K11V` group 1

Note: place this variant into its band. Item: `I41P` group 1

Note: place this variant into its band. Item: `K58A` group 2

Note: place this variant into its band. Item: `G33Q` group 3

Note: place this variant into its band. Item: `S34W` group 2

Note: place this variant into its band. Item: `L28E` group 1

Note: place this variant into its band. Item: `K52A` group 3

Note: place this variant into its band. Item: `S50H` group 3

Note: place this variant into its band. Item: `F10I` group 1

Note: place this variant into its band. Item: `R14Y` group 1

Note: place this variant into its band. Item: `F36G` group 1

Note: place this variant into its band. Item: `E2V` group 1

Note: place this variant into its band. Item: `S37Y` group 2

Note: place this variant into its band. Item: `A54Y` group 2

Note: place this variant into its band. Item: `K58E` group 1

Note: place this variant into its band. Item: `A30E` group 3

Note: place this variant into its band. Item: `V24C` group 2

Note: place this variant into its band. Item: `E45R` group 1

Note: place this variant into its band. Item: `V31K` group 3

Note: place this variant into its band. Item: `S50L` group 2

Note: place this variant into its band. Item: `S50R` group 2

Note: place this variant into its band. Item: `R1F` group 3

Note: place this variant into its band. Item: `A59T` group 3

Note: place this variant into its band. Item: `Q48S` group 2
